Every entry's value here was drawn from PubChem BioAssay.

# Procedure text: viability loss with induced miR-34 in A549 – imaging, A549 dox-inducible miR-34, nuclei and caspase counts, primary screen (AID 1347080)
# Condition summary: A549 miR-34 inducible, Hoechst nuclei count, 48 h; stronger effect = lower value; cell number ratio, induced over uninduced
Please go through the items and note down their fold change.
Answer with the value's number alone.

Exercise: Report measured fold change; entry is `CCCCCCCCCCCCCCCCOC[C@H](COP(=O)([O-])OCC[N+](C)(C)C)OC(=O)CCCCCCCC(=O)O`
Solution: 0.862

Exercise: Report measured fold change; entry is `O=c1[nH]c2cc(Cl)ccc2c(O)c1-c1cccc(Oc2ccccc2)c1`
Solution: 0.963

Exercise: Report measured fold change; entry is `CCN(c1cc(-c2ccc(CN3CCOCC3)cc2)cc(C(=O)NCc2c(C)cc(C)[nH]c2=O)c1C)C1CCOCC1`
Solution: 0.946

Exercise: Report measured fold change; entry is `CCCC[P+](CCCC)(CCCC)Cc1ccc(NC(=O)[C@@H](Cc2ccc3ccccc3c2)NC(=NC2CCCCC2)NC2CCCCC2)cc1`
Solution: 1.01

Exercise: Report measured fold change; entry is `Cc1cnc(Nc2ccc(N3CCN(C)CC3)cc2)nc1Nc1cccc(S(=O)(=O)NC(C)(C)C)c1`
Solution: 1.22

Exercise: Report measured fold change; entry is `c1ncc(CC2CCNCC2)[nH]1`
Solution: 0.95

Exercise: Report measured fold change; entry is `CCCCCCCCCCCCCCCC(=O)OC[C@H](COP(=O)([O-])OCC[N+](C)(C)C)OC(=O)CCCCCCCC(=O)/C=C/C(=O)O`
Solution: 0.943

Exercise: Report measured fold change; entry is `Cn1cc(-c2ccc3ncc(Cc4ccc5ncccc5c4)n3n2)cn1`
Solution: 0.865

###

# Tested on: Aerobactin synthetase IucA (Klebsiella pneumoniae)
# Procedure text: inhibition of K. pneumoniae IucA enzyme – biochemical, Tocris library, absorbance (AID 1345561);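 also: 100% = enzyme without compound and 0% = no enzyme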
# Condition summary: purified IucA enzyme assay, absorbance (OD) read-out; stronger effect = lower value; concentration not given here
Calls of active or inactive are those of the source. How the calls were made is not given here.
Test readout: remaining activity

Exercise: Report measured remaining activity; entry is `Nc1c(S(=O)(=O)O)cc(Nc2cccc3ccccc23)c2c1C(=O)c1ccccc1C2=O`
Solution: 109% (inactive)

Exercise: Report measured remaining activity; entry is `CCCCCCCNS(=O)(=O)c1cccc2c(Cl)cccc12`
Solution: 95% (inactive)

Exercise: Report measured remaining activity; entry is `CC(C)n1nnc2cc(C(=O)O)ccc21`
Solution: 115% (inactive)

Exercise: Report measured remaining activity; entry is `Cc1ccc(-c2csc(NC(=O)c3ccccc3)n2)c(C)c1`
Solution: 101% (inactive)

Exercise: Report measured remaining activity; entry is `N#C/C(=C\c1ccc(O)c(O)c1)C(=O)NCCCc1ccccc1`
Solution: 98.4% (inactive)

Exercise: Report measured remaining activity; entry is OC1CCC(Nc2nc(-c3ccccc3)nc3[nH]ccc23)CC1 (stereo not given)
Solution: 112% (inactive)

Exercise: Report measured remaining activity; entry is `CN(C)C(=O)C(=O)c1cn(C)c2cc(Cl)c(C(=O)N3CCC(Cc4ccc(F)cc4)CC3)cc12`
Solution: 118% (inactive)

Exercise: Report measured remaining activity; entry is `Cc1nc2ccc(NC(=O)Nc3ccnc4cccnc34)cc2o1`
Solution: 111% (inactive)

Exercise: Report measured remaining activity; entry is NC(C(=O)O)c1cc(O)ccc1Cl (stereo not given)
Solution: 120% (inactive)

Exercise: Report measured remaining activity; entry is `O=C(Nc1cccc2cccnc12)c1ccc(N2C(=O)[C@@H]3[C@H](C2=O)[C@@H]2C=C[C@H]3C2)cc1`
Solution: 115% (inactive)

Exercise: Report measured remaining activity; entry is CO[C@]12C[C@@H](COC(=O)c3cncc(Br)c3)CN(C)[C@@H]1CC1=CN(C)C3C=CC=C2C13 (stereo not given in full)
Solution: 107% (inactive)

Exercise: Report measured remaining activity; entry is `O[C@H](CNC[C@@H](O)[C@H]1CCc2cc(F)ccc2O1)[C@@H]1CCc2cc(F)ccc2O1`
Solution: 101% (inactive)

Exercise: Report measured remaining activity; entry is `CCCCCCNC(=O)Nc1ccc(S(=O)(=O)Nc2ccc(CCNC[C@H](O)COc3ccc(O)cc3)cc2)cc1`
Solution: 94.3% (inactive)

Exercise: Report measured remaining activity; entry is NC(C(=O)O)c1ccc(C(=O)O)c(O)c1 (stereo not given)
Solution: 93.9% (inactive)

Exercise: Report measured remaining activity; entry is `CCCCCCCCCCCCCCCCn1cc[n+](Cc2ccccc2)c1C`
Solution: 93.9% (inactive)

Exercise: Report measured remaining activity; entry is CC1(C(=O)O)NCCc2cc(O)c(O)cc21 (stereo not given)
Solution: 123% (inactive)

Exercise: Report measured remaining activity; entry is `COc1cc2ncnc(Nc3ccc(Cl)cc3F)c2cc1OC`
Solution: 98.6% (inactive)

Exercise: Report measured remaining activity; entry is O=S(c1ccccc1)c1ccc2nnnn2n1 (stereo not given)
Solution: 106% (inactive)

Exercise: Report measured remaining activity; entry is CC(N)(C(=O)O)c1ccc(-c2nn[nH]n2)cc1 (stereo not given)
Solution: 94.5% (inactive)

Exercise: Report measured remaining activity; entry is `CSc1cc2c(cc1C(F)(F)F)N(C(=O)Nc1cccnc1)CC2`
Solution: 112% (inactive)

Exercise: Report measured remaining activity; entry is `Nc1nc2c(nc(Br)n2[C@@H]2O[C@@H]3COP(=O)(O)O[C@H]3[C@H]2O)c(=O)[nH]1`
Solution: 113% (inactive)

Exercise: Report measured remaining activity; entry is `O=C(OCCN1CCCCC1)c1c[nH]c2ccccc12`
Solution: 82.2% (inactive)

Exercise: Report measured remaining activity; entry is COc1ccc(CC(=O)NC(/N=C(\NC#N)Nc2cccc3ncccc23)C(C)(C)C)cc1OC (stereo not given)
Solution: 122% (inactive)

Exercise: Report measured remaining activity; entry is `N[C@@H]1CCN(O)C1=O`
Solution: 121% (inactive)

Exercise: Report measured remaining activity; entry is `N[C@H](C(=O)O)c1ccc(O)c(C(=O)O)c1`
Solution: 98.7% (inactive)

Exercise: Report measured remaining activity; entry is `OC[C@H]1NC[C@@H](O)[C@@H](O)[C@@H]1O`
Solution: 123% (inactive)

Exercise: Report measured remaining activity; entry is `CCCCc1nn(-c2ccccc2C(F)(F)F)c(=O)n1Cc1ccc(-c2ccccc2S(=O)(=O)NC(=O)c2sccc2C)cc1`
Solution: 91.8% (inactive)

Exercise: Report measured remaining activity; entry is `COc1ccc(NS(=O)(=O)c2ccc(I)cc2)cc1N1CCN(C)CC1`
Solution: 112% (inactive)

Exercise: Report measured remaining activity; entry is `COC(=O)C1=C(C)NC(C)=C(C(=O)OCCCN2CCC(c3ccccc3)(c3ccccc3)CC2)[C@@H]1c1cccc([N+](=O)[O-])c1`
Solution: 109% (inactive)

Exercise: Report measured remaining activity; entry is `O=c1cc(N2CCOCC2)nc2c3ccccc3ccn12`
Solution: 126% (inactive)

Exercise: Report measured remaining activity; entry is `CCCCc1nc2ccn(CC(=O)N(C)C)c(=O)c2n1Cc1ccc(-c2ccccc2-c2nn[nH]n2)cc1`
Solution: 111% (inactive)

Exercise: Report measured remaining activity; entry is `CN1CCN(C(=O)c2nc3ccc(Cl)cc3[nH]2)CC1`
Solution: 102% (inactive)

Exercise: Report measured remaining activity; entry is CC1(C)CC(=O)C(C2C3=C(CC(C)(C)CC3=O)Oc3ccccc32)C(=O)C1 (stereo not given)
Solution: 120% (inactive)

Exercise: Report measured remaining activity; entry is `COc1cc2ncnc(Nc3ccc(Oc4ccccc4)cc3)c2cc1OC`
Solution: 104% (inactive)

Exercise: Report measured remaining activity; entry is `CC[C@]1(O)C[C@H]2CN(CCc3c([nH]c4ccccc34)[C@@](C(=O)OC)(c3cc4c(cc3OC)N(C)[C@H]3[C@@](O)(C(=O)OC)[C@H](OC(C)=O)[C@]5(CC)C=CCN6CC[C@]43[C@@H]65)C2)C1`
Solution: 123% (inactive)
